Test system: Escherichia coli
Assay details: minimum inhibitory concentration (MIC)
Recorded conditions: isolate (source animal id): 146
Measurement name: minimum inhibitory concentration

Compound | Result
CC1(C)S[C@@H]2[C@H](NC(=O)Cc3ccccc3)C(=O)N2[C@H]1C(=O)O | > 8 µg/mL
CNC(C)C1CCC(N)C(OC2C(N)CC(N)C(OC3OCC(C)(O)C(NC)C3O)C2O)O1 (centres undefined) | ≤ 1 µg/mL
CC[C@H]1OC(=O)C[C@@H](O)[C@H](C)[C@@H](O[C@@H]2O[C@H](C)[C@@H](O)[C@H](N(C)C)[C@H]2O)[C@@H](CCN2CCCCC2)C[C@@H](C)C(=O)/C=C/C(C)=C/[C@@H]1CN1CCCCC1 | 8 µg/mL

We now examine a further compound.
What minimum inhibitory concentration value was documented for this compound, CC[C@H]1OC(=O)C[C@@H](O)[C@H](C)[C@@H](O[C@@H]2O[C@H](C)[C@@H](O[C@H]3C[C@@](C)(O)[C@@H](O)[C@H](C)O3)[C@H](N(C)C)[C@H]2O)[C@@H](CC=O)C[C@@H](C)C(=O)/C=C/C(C)=C/[C@@H]1CO[C@@H]1O[C@H](C)[C@@H](O)[C@@H](OC)[C@H]1OC ?
> 32 µg/mL

====

Tested on: Histophilus somni
Assay details: minimum inhibitory concentration (MIC)
Recorded conditions: isolate (source animal id): 135
Please provide measured minimum inhibitory concentration for the entries that follow.

Compound | Measured target | Measurement name | Result
CN[C@@H]1[C@H](O)[C@H](NC)[C@H]2O[C@@]3(O)C(=O)C[C@@H](C)O[C@H]3O[C@@H]2[C@H]1O [Spectinomycin] | Histophilus somni | minimum inhibitory concentration | ≤ 8 µg/mL
CC1(C)S[C@@H]2[C@H](NC(=O)Cc3ccccc3)C(=O)N2[C@H]1C(=O)O [Penicillin] | Histophilus somni | minimum inhibitory concentration | ≤ 0.12 µg/mL
COc1cc(Cc2cnc(N)nc2N)cc(OC)c1OC.Cc1cc(NS(=O)(=O)c2ccc(N)cc2)no1 [trimethoprim-sulfamethoxazole] | Histophilus somni | minimum inhibitory concentration | > 2 µg/mL
CC1(C)S[C@@H]2[C@H](NC(=O)[C@H](N)c3ccccc3)C(=O)N2[C@H]1C(=O)O [Ampicillin] | Histophilus somni | minimum inhibitory concentration | ≤ 0.25 µg/mL
CNC(C)C1CCC(N)C(OC2C(N)CC(N)C(OC3OCC(C)(O)C(NC)C3O)C2O)O1 (stereo not drawn) [Gentamicin] | Histophilus somni | minimum inhibitory concentration | 8 µg/mL

Field: minimum inhibitory concentration. Fill in for each record below.
1. CN1C[C@@H]2C[C@H]1CN2c1cc2c(cc1F)c(=O)c(C(=O)O)cn2C1CC1 [Danofloxacin]
2. NC[C@@H]1O[C@H](O[C@H]2[C@@H](O)[C@H](O[C@@H]3[C@@H](O)[C@H](N)C[C@H](N)[C@H]3O[C@H]3O[C@H](CN)[C@@H](O)[C@H](O)[C@H]3N)O[C@@H]2CO)[C@H](N)[C@@H](O)[C@@H]1O [Neomycin]
3. CC[C@H]1OC(=O)C[C@@H](O)[C@H](C)[C@@H](O[C@@H]2O[C@H](C)[C@@H](O)[C@H](N(C)C)[C@H]2O)[C@@H](CCN2CCCCC2)C[C@@H](C)C(=O)/C=C/C(C)=C/[C@@H]1CN1CCCCC1 [Tildipirosin]

["≤ 0.12 µg/mL", "16 µg/mL", "2 µg/mL"]

====

Tested on: Mannheimia haemolytica
Assay details: minimum inhibitory concentration (MIC)
Recorded conditions: isolate (source animal id): 25
Measurement name: minimum inhibitory concentration (mg/L)
Numbers only, in mg/L.

Record excerpt, results attached:
Compound | Measured target | minimum inhibitory concentration, mg/L
CS(=O)(=O)c1ccc([C@@H](O)[C@@H](CF)NC(=O)C(Cl)Cl)cc1 [Florfenicol] | Mannheimia haemolytica | 2
CCN1CCN(c2cc3c(cc2F)c(=O)c(C(=O)O)cn3C2CC2)CC1 [Enrofloxacin] | Mannheimia haemolytica | 0.5
CN(C)[C@@H]1C(O)=C(C(N)=O)C(=O)[C@@]2(O)C(O)=C3C(=O)c4c(O)cccc4[C@@](C)(O)[C@H]3C[C@@H]12 [Tetracycline] | Mannheimia haemolytica | 4

Consider the record given below.
So what's the measured minimum inhibitory concentration for this one? CCCNC[C@]1(O)[C@H](C)O[C@@H](O[C@H]2[C@H](C)[C@@H](O[C@@H]3O[C@H](C)C[C@H](N(C)C)[C@H]3O)[C@](C)(O)C[C@@H](C)CN[C@H](C)[C@@H](O)[C@](C)(O)[C@@H](CC)OC(=O)[C@@H]2C)C[C@@]1(C)OC [Tulathromycin]
16

====

System: Histophilus somni
Assay details: minimum inhibitory concentration (MIC)
Recorded conditions: isolate (source animal id): 337
Measurement name: minimum inhibitory concentration

A selection of reference data follows.
Structure smiles string | minimum inhibitory concentration
CS(=O)(=O)c1ccc([C@@H](O)[C@@H](CF)NC(=O)C(Cl)Cl)cc1 | ≤ 0.25 µg/mL
C=C[C@]1(C)C[C@@H](OC(=O)CSCCN(CC)CC)[C@]2(C)[C@H](C)CC[C@]3(CCC(=O)[C@H]32)[C@@H](C)[C@@H]1O | 1 µg/mL
CCCN1C[C@H](C)[C@@H](O)[C@](C)(O)[C@@H](CC)OC(=O)[C@H](C)[C@@H](O[C@H]2C[C@@](C)(OC)[C@@H](O)[C@H](C)O2)[C@H](C)[C@@H](O[C@@H]2O[C@H](C)C[C@H](N(C)C)[C@H]2O)[C@](C)(O)C[C@H]1C | ≤ 1 µg/mL

If you can, please state the reported minimum inhibitory concentration value of CCN1CCN(c2cc3c(cc2F)c(=O)c(C(=O)O)cn3C2CC2)CC1 .
≤ 0.12 µg/mL

====

Tested on: Mannheimia haemolytica
Assay details: minimum inhibitory concentration (MIC)
Recorded conditions: isolate (source animal id): 282
Measurement name: minimum inhibitory concentration

Provide each entry's minimum inhibitory concentration from the list below.
1. CC[C@H]1OC(=O)C[C@@H](O)[C@H](C)[C@@H](O[C@@H]2O[C@H](C)[C@@H](O[C@H]3C[C@@](C)(O)[C@@H](O)[C@H](C)O3)[C@H](N(C)C)[C@H]2O)[C@@H](CC=O)C[C@@H](C)C(=O)/C=C/C(C)=C/[C@@H]1CO[C@@H]1O[C@H](C)[C@@H](O)[C@@H](OC)[C@H]1OC
2. NC[C@@H]1O[C@H](O[C@H]2[C@@H](O)[C@H](O[C@@H]3[C@@H](O)[C@H](N)C[C@H](N)[C@H]3O[C@H]3O[C@H](CN)[C@@H](O)[C@H](O)[C@H]3N)O[C@@H]2CO)[C@H](N)[C@@H](O)[C@@H]1O
3. COc1cc(NS(=O)(=O)c2ccc(N)cc2)nc(OC)n1
4. CC[C@H]1OC(=O)C[C@@H](O)[C@H](C)[C@@H](O[C@@H]2O[C@H](C)[C@@H](O)[C@H](N(C)C)[C@H]2O)[C@@H](CCN2CCCCC2)C[C@@H](C)C(=O)/C=C/C(C)=C/[C@@H]1CN1CCCCC1
5. CC[C@H]1OC(=O)C[C@@H](O)[C@H](C)[C@@H](O[C@@H]2O[C@H](C)[C@@H](O)[C@H](N(C)C)[C@H]2O)[C@@H](CCN2C[C@H](C)C[C@H](C)C2)C[C@@H](C)C(=O)/C=C/C(C)=C/[C@@H]1CO[C@@H]1O[C@H](C)[C@@H](O)[C@@H](OC)[C@H]1OC

1: > 32 µg/mL; 2: > 32 µg/mL; 3: > 256 µg/mL; 4: > 16 µg/mL; 5: > 16 µg/mL

====

Test system: Histophilus somni
Assay details: minimum inhibitory concentration (MIC)
Recorded conditions: isolate (source animal id): 262
Measurement name: minimum inhibitory concentration

Solved entries:
Compound | minimum inhibitory concentration
CC[C@H]1OC(=O)C[C@@H](O)[C@H](C)[C@@H](O[C@@H]2O[C@H](C)[C@@H](O)[C@H](N(C)C)[C@H]2O)[C@@H](CCN2C[C@H](C)C[C@H](C)C2)C[C@@H](C)C(=O)/C=C/C(C)=C/[C@@H]1CO[C@@H]1O[C@H](C)[C@@H](O)[C@@H](OC)[C@H]1OC [Tilmicosin] | ≤ 2 µg/mL
CNC(C)C1CCC(N)C(OC2C(N)CC(N)C(OC3OCC(C)(O)C(NC)C3O)C2O)O1 (stereo unspecified) [Gentamicin] | 4 µg/mL
COc1cc(NS(=O)(=O)c2ccc(N)cc2)nc(OC)n1 [sulfadimethoxine] | ≤ 256 µg/mL
CN[C@@H]1[C@H](O)[C@H](NC)[C@H]2O[C@@]3(O)C(=O)C[C@@H](C)O[C@H]3O[C@@H]2[C@H]1O [Spectinomycin] | > 64 µg/mL
CN(C)[C@@H]1C(O)=C(C(N)=O)C(=O)[C@@]2(O)C(O)=C3C(=O)c4c(O)cccc4[C@@](C)(O)[C@H]3C[C@@H]12 [Tetracycline] | > 8 µg/mL

Switching to the query record.
Requested read-out minimum inhibitory concentration, target or system Histophilus somni, entry CS(=O)(=O)c1ccc([C@@H](O)[C@@H](CF)NC(=O)C(Cl)Cl)cc1 [Florfenicol]
1 µg/mL

Origin of measurements: the supplement of paper PMC8612539
